system: Bacillus subtilis DB104 (SP-AmyQ fusion secretion); assay: AmyQ secretion efficiency, weighted average sort bin (1 = best secretion, 10 = worst) (bin number (weighted average, 1-10)); higher = lower secretion efficiency
Answer each item with its documented AmyQ secretion efficiency.
// keep it numeric: no unit symbol after the value

Exam item: I'm curious: which AmyQ secretion efficiency was measured for MKLKKRVSMFLVALTMCGGLFVTPVKAVKT tested on Bacillus subtilis DB104 (SP-AmyQ fusion secretion)?
Marked response: 2.64

Exam item: What value of AmyQ secretion efficiency on Bacillus subtilis DB104 (SP-AmyQ fusion secretion) does MKKGIIRFLLVSFVLFFALRRKKKRVQAAPA have?
Marked response: 5.81

Exam item: Give AmyQ secretion efficiency (Bacillus subtilis DB104 (SP-AmyQ fusion secretion)) of the following sequence: MKRLLVSLRVWMVFLMNWVTPDRKTAAAAVY
Marked response: 6.49

====

system: Bacillus subtilis DB104 (SP-AmyQ fusion secretion); assay: AmyQ secretion efficiency, weighted average sort bin (1 = best secretion, 10 = worst) (bin number (weighted average, 1-10)); higher = lower secretion efficiency
Give Met when the value for AmyQ secretion efficiency is at least 5. Give Not met when it is less.

Exam item: Hi, just wondering whether MKKAAAVLLSLGLVFGFSYGAGHVHEAKTK shows AmyQ secretion efficiency of 5 or higher.
Marked response: Met

Exam item: Textbook exercise: given the entry MMSTIMSFVAVAALSTTAFGAHASAKEI , state whether its AmyQ secretion efficiency is greater than or equal to 5.
Marked response: Not met

Exam item: For this sequence, is measured AmyQ secretion efficiency 5 or higher? MFKKHTISLLIIFLLASAVLAKPIEPHTV
Marked response: Met

Exam item: Does AmyQ secretion efficiency meet or surpass 5 for MKKLLAAGIIGLLTVSIASPSFHAEK ?
Marked response: Met

Exam item: Is AmyQ secretion efficiency at least 5? Consider MKKIVSILFMFGGFSQFQPSTVFAADK
Marked response: Not met

Exam item: For this sequence, is measured AmyQ secretion efficiency 5 or higher? MKKWMITIAMLILAGIALFVFISPYKSHKT
Marked response: Met

Exam item: Reported AmyQ secretion efficiency reaches at least 5 for MGMKKKLSLGVASAALGLALVGGGGWAAFN ?
Marked response: Met

Exam item: Check if AmyQ secretion efficiency >= 5 (inclusive). Item: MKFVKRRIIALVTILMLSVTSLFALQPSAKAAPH
Marked response: Not met

Exam item: For this sequence, is measured AmyQ secretion efficiency 5 or higher? MRFTKVVGFLSVLGLAAVFPLTAQAEED
Marked response: Not met

Exam item: Hello, I need to know if MKNGGCKLVVSVTLFFSFLTIGPLAHAQNS has measured AmyQ secretion efficiency not below 5. Thanks!
Marked response: Not met

Exam item: Quick check, AmyQ secretion efficiency >= 5? MKIRKILLSSALSFGMLISAVPALFAGT
Marked response: Met

Exam item: Kindly determine if AmyQ secretion efficiency recorded for MKRFSTAYLLLGILCSAAVFLIGAPSRALGKKK is above or exactly 5.
Marked response: Met

Exam item: Check if AmyQ secretion efficiency >= 5 (inclusive). Item: MRSKKLWISLLFALTLIFTMAFSNMSCQAAGK
Marked response: Not met

Exam item: Could you verify whether the entry MKSKGSIMACLILFSFTITIILVTLIIVATFINTETISAFSN shows AmyQ secretion efficiency of no less than 5?
Marked response: Met

Exam item: Answer whether AmyQ secretion efficiency of MKRLLSTLLIGIMLLTFAPSAFAAQQ is greater than or equal to 5.
Marked response: Not met

Exam item: Would you say MSTGTSGSLISSLIVLSTVVISSLLFPGAAGASSK shows AmyQ secretion efficiency at minimum 5?
Marked response: Not met
